Listed next: entries and their corresponding Assay (% w/w).
Assay: Active ingredient assay and recovery on storage (Table 2)
Type: physicochemical
Settings: 1 month storage, 0° C.
Number only, in % w/w; omit the unit.

Recorded results for 4 molecules are shown here.
INSERT INTO assay_data (molecule, result) VALUES
  ('CCCCCCCC(=O)Oc1c(Br)cc(C#N)cc1Br [Bromoxynil, Bromoxynil Octanoate]', 31.04),
  ('CCCCCCC(C)OC(=O)COc1nc(F)c(Cl)c(N)c1Cl (centres unmarked) [Fluroxypyr, Fluroxypyr Meptyl]', 11.47),
  ('CCCCCC(C)OC(=O)COc1ccc(Cl)c2cccnc12 (centres unmarked) [cloquintocet, Cloquintocet Mexyl]', 0.41),
  ('COc1nn(C(=O)[N-]S(=O)(=O)c2ccccc2OC(F)(F)F)c(=O)n1C.[Na+] [Flucarbazone, Flucarbazone Sodium]', 1.89);

input: Respond only with Assay (% w/w) recorded for CCCCC(CC)COC(=O)COc1ccc(Cl)cc1C (centres unmarked) [MCPA]
output: 34.61
